B1: SEC22B (parent)
chain: AKQLFRKLNEQSPTRCTLEAGAMT

# Variants of: B1
# Procedure Summary: protein stability index of a GFP-peptide fusion (GPS, HEK-293T) (PSI 1-6); higher = more stable;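 also: lentivirally expressed fusions sorted by FACS into six bins by GFP to DsRed ratio, PSI derived from sequencing read proportions per bin multiplied by bin number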
# Test Settings: c terminus: a fixed tail appended
Quick rule: protein stability index of at least 2 means Criterion met, below that means Criterion not met.

Solved entries (count: 5):
> print(dat)
               biopolymer.sequence       answer.label
1  AKQLFRKLNEQSPTRCSLEAGAMT [T17S]  Criterion not met
2  AKQLFRKLNEQSPTRCTLEAGAMC [T24C]      Criterion met
3   AKQDFRKLNEQSPTRCTLEAGAMT [L4D]      Criterion met
4   AKNLFRKLNEQSPTRCTLEAGAMT [Q3N]      Criterion met
5  AKQLFRKLNEQSPTRCTLYAGAMT [E19Y]      Criterion met

Given AKQLFRKLNEQSPTRCTLEAGGMT [A22G] , state whether its protein stability index is at least 2.
Criterion met

Test whether the variant AKQLWRKLNEQSPTRCTLEAGAMT [F5W] records protein stability index of 2 or higher.
Criterion not met

Is reported protein stability index greater than or equal to 2 here: AKQLFRKLNEQSPTRCTLEAGAET [M23E]
Criterion met
